- Test system: MV-4-11 cells
- procedure-details: Effect of the compound on proliferation of MV-4-11 cells (MTS)
- Type: cell-based
- experimental-parameters: Homo sapiens, MV4-11, 168 h, 7 days, MTS, read-out: Inhibitory activity (IC50)
endpoint-name: IC50

COCCn1ccc2cc(-n3cc(COc4cccc5c4CN(C4CCC(=O)NC4=O)C5=O)nn3)ccc21 (stereo not shown) | < 1000 nM

The reported IC50 value, MV-4-11 cells, for O=C1CCC(N2Cc3c(OCc4cn(-c5cccc(Cl)c5Cl)nn4)cccc3C2=O)C(=O)N1 (stereo not shown) reads < 1000 nM

The reported IC50 value, MV-4-11 cells, for COC[C@H](Cc1ccccc1)n1cc(COc2cccc3c2CN(C2CCC(=O)NC2=O)C3=O)nn1 (stereo partly shown) reads 1000 to 20000 nM

The reported IC50 value, MV-4-11 cells, for Nc1cccc2c1CN(C1CCC(=O)NC1=O)C2=O (stereo not shown) [Lenalidomide, lenalidomide, reference compound] reads > 20000 nM
